- System under test: GLP-1R (Homo sapiens)
- Construct: host or cells: GLP-1R CRE-bla CHO-K1 cells
- Experiment notes: EC20 GLP-1(9-36) PAM cAMP assay: dose response of compound in the presence of fixed concentration of GLP-1(9-36)
- Format: cell-based
- Measurement conditions: dose response of compound in presence of fixed concentration of GLP-1(9-36), GLP-1R CRE-bla CHO-K1 cells, read-out: EC20 GLP-1(9-36) PAM EC50
Below: a set of entries, each annotated with reported EC50.

CCCCCCCOc1ccc(-c2cnc(-c3ccc(C[C@@H](NC(=O)c4ccc(C(C)(C)C)cc4)C(=O)O)cc3)nc2)cc1 800 to 2500 nM
CCOc1cc(OC(F)(F)F)cc(-c2cnc(-c3ccc(C[C@H](NC(=O)c4ccc(C(C)(C)C)s4)C(=O)N[C@H](C)C(=O)O)cc3)nc2)c1F 2500 to 5000 nM

With those in mind, consider the next compound.
Test system GLP-1R (Homo sapiens); read-out EC50; what value for CCCCCCCOc1ccc(-c2cnc(-c3ccc(C[C@H](NC(=O)c4cnn(C(C)(C)C)c4C)C(=O)N4CC[C@H](C(=O)O)C4)cc3)nc2)cc1 ?
2500 to 5000 nM

----------
- System under test: GLP-1R (Homo sapiens, UniProt P43220)
- Construct: host or cells: GLP-1R CRE-bla CHO-K1 cells
- Sequence (P43220 24-463): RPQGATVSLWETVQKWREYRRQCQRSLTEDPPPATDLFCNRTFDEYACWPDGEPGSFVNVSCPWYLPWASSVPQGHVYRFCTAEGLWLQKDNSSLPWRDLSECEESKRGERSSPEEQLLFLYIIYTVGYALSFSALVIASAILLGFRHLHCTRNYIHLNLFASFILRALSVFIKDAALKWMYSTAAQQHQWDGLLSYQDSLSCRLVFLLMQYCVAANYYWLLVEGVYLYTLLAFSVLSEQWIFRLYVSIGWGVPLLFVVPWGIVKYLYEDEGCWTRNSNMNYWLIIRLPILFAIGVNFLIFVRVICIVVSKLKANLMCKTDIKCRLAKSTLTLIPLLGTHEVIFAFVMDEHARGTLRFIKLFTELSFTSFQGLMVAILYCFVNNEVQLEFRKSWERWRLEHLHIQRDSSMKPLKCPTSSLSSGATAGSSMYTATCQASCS
- Sequence (P01275 100-127 partner limits assumed): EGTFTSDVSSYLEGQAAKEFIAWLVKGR
- Experiment notes: EC20 GLP-1(9-36) PAM cAMP assay: dose response of compound in the presence of fixed concentration of GLP-1(9-36)
- Format: cell-based
- Measurement conditions: GLP-1R CRE-bla CHO-K1 cells, compound dose response with fixed concentration of GLP-1(9-36), read-out: EC20 GLP-1(9-36) PAM EC50
pEC50: −log10 of the molar value.
Below: a set of entries, each annotated with reported pEC50.

The examples below pair each entry with its known result.
Compound	System under test	Result
COc1ccc(C(=O)N[C@@H](Cc2ccc(-c3ncc(-c4ccc(OCCCC(C)C)cc4)cn3)cc2)C(=O)N2CC(C(=O)O)C2)cc1	GLP-1R (Homo sapiens, UniProt P43220)	5.30 to 5.60
CCC[C@H]1CC[C@H](C2CCN(c3cnc(-c4ccc(C[C@H](NC(=O)c5ccc(C(C)(C)C)s5)C(=O)N5CC(C)(C(=O)O)C5)cc4)nc3)CC2)CC1	GLP-1R (Homo sapiens, UniProt P43220)	> 6.10
CCC[C@H]1CC[C@H](C2CCN(c3cnc(-c4ccc(C[C@H](NC(=O)c5ccc(C(C)(C)C)s5)C(=O)NS(C)(=O)=O)cc4)nc3)CC2)CC1	GLP-1R (Homo sapiens, UniProt P43220)	> 6.10
CCC[C@H]1CC[C@H](N2CCN(c3cnc(-c4ccc(CC(NC(=O)c5ccc(C(C)(C)C)s5)C(=O)N5CC(C(=O)O)C5)cc4)nc3)C(=O)C2)CC1 (some centres unmarked)	GLP-1R (Homo sapiens, UniProt P43220)	5.30 to 5.60

With those in mind, consider the next compound.
Test system GLP-1R (Homo sapiens, UniProt P43220); read-out pEC50; what value for CCCC(C)Oc1ccc(-c2ccc(-c3cnc(-c4ccc(C[C@H](NC(=O)c5ccc(C(C)(C)C)s5)C(=O)N[C@H](C)C(=O)O)cc4)nc3)cc2)cc1 (some centres unmarked) ?
5.30 to 5.60
